Reference source for all entries: the supplement of paper PMC9170038

This section presents sequences with their documented apparent KD of MS2 coat protein values.
test system: MS2 coat protein; assay: apparent KD of MS2 coat protein; designed switch direction (-1 OFF switch, 1 ON switch): 1; higher = weaker reporter binding; conditions: Eterna round: R95; input ligand: FMN 200 uM
value-type: apparent KD of MS2 coat protein (nM)

>>> observed_value("AACAAUCUAUCUGAGGAUAUCAUGAUAUAAACAUGAGGAUCACCCAUGUGCAGGAAAACUGCAUAUGAGAAGGCAGAUAGAUUGA [salish99_ss2_r3_031] (puzzle: Same State 2)")
43
>>> observed_value("GAGGGACAUGAGGAUCACCCAUGUGGAAAAUUUAAAGGAUAUUAGUGUGGGAAAGUAGGGUAAGAAGGUUGAUUGG [JR_SS1_Sub085] (puzzle: Same State 1)")
50.2
>>> observed_value("AUGCCCGUAGCACAGGAUAUCCGAGGCAAAACAUGAGGAUCACCCAUGUCAAACGAAAAUCCGAAGGAGAAGGGUGAACGGGCUC [Xeisquorat] (puzzle: Same State 2)")
12

###

This section presents sequences with their documented apparent KD of MS2 coat protein values.
tested on: MS2 coat protein; assay: apparent KD of MS2 coat protein; designed switch direction (-1 OFF switch, 1 ON switch): -1; higher = weaker reporter binding; conditions: input ligand: FMN 200 uM
value-type: apparent KD of MS2 coat protein (nM)

>>> observed_value("AUUGAUAGCACAGGAUAUUGAGAUUUGAAUUGACAAGAAGGGUGUACAUGAGGAUCACCCAUGUAAUGGUUGAGUGGUUGAUUA [JR_ExcNG1_Sub003] (Eterna round: R96, puzzle: Exclusion NG 1)")
953
>>> observed_value("CUUCGUAAUGUCAGGAUAUUUUCGAGGGCAACUCAAAAGAAGGGACAUGAGGAUCACCCAUGUGGCAACGUCAU [Eternabot (L2) Solution 83] (Eterna round: R97, puzzle: Brourd's mod of Exclusion 4)")
177
>>> observed_value("GCAGGUUAAGUCAGGAUAUACCUAUGGAUACAUAGGUAGAAGGGACAUGAGGAUCACCCAUGUGCCUCACCUGC [Mod of Eli - Jieux - Brourd's mod of Exclusion 4] (Eterna round: R97, puzzle: Brourd's mod of Exclusion 4)")
109
>>> observed_value("ACAUGAGGAUCACCCAUGUCCGGCUGGUCCGUCUCGGCUGUCGAGGAUAUGGCUCGGUGUCCGCGCUAGAAGGUGGGAGCCGGA [Aenatbe mod 75] (Eterna round: R96, puzzle: Exclusion NG 3)")
56.7

###

test system: MS2 coat protein; assay: apparent KD of MS2 coat protein; higher = weaker reporter binding; details: Eterna round: R107; input ligand: theophylline 20 uM
This section presents sequences with their documented apparent KD of MS2 coat protein values.
value-type: apparent KD of MS2 coat protein (nM)

>>> observed_value("UGUAUGUGAUUUGAUACCAGACCAACUGGUAAUACAUGAGGAUCACCCAUGUAGAUUUGGGUCCCUUGGCAGCAAAUCGCAUACU [SSTheo B #23]")
34.1
>>> observed_value("GCGAUGGAGCGAAGGAGCGUGCUAGUACAUGAGGAUCACCCAUGUGAGUCGCAUCGCUAAGCACAGGUAGGUCGCGCUCCAUCGC [EAB NP+V+V2 #9]")
122
>>> observed_value("UAUAUAUAAACAUGAGGAUCACCCAUGUAACGAGGACCGGUACGGCCGCCACUCGGCCGGCAAGGGAGAGGACGGGAAACCGUCG [ETA NP+V+V2 #27]")
19.3

###

test system: MS2 coat protein; experiment: apparent KD of MS2 coat protein; designed switch direction (-1 OFF switch, 1 ON switch): 1; higher = weaker reporter binding; settings: input ligand: microRNA oligo, concentration not stated
value-type: apparent KD of MS2 coat protein (nM)

>>> observed_value("AUAUGAGAAGCAGGAUAUGUGAAAAAAAAACAUACAGAAGGGUUUAUGGAAAAACAUGAGGAUCACCCAUGUUCUUUGUGAUGA [AK SSNG1-V2-1] (Eterna round: R96, puzzle: Same State NG 1)")
29.6
>>> observed_value("GUUACAUGAGGAUCACCCAUGUAUGUGUGGGAGUAAGUGUCUUAGGAUAUCUGUUAUGUAAUUUAAGAGAAGGAAGAUUGUUGU [JMF's solution 34] (Eterna round: R96, puzzle: Same State NG 3)")
300
>>> observed_value("GCGAAAGCAGGAGGAUAUGCAGAGGAUCACCCUGUAGAAGGCCACAGAGGAGGAUAUGCAGAGGAUCACCCUGUAGAAGGCCAC [pwkr ssNG DX.17] (Eterna round: R96, puzzle: Same State NG 1)")
262

###

This section presents sequences with their documented apparent KD of K4 kissing-loop reporter values.
tested on: K4 kissing-loop RNA reporter; test: apparent KD of K4 kissing-loop reporter; higher = weaker reporter binding; conditions: Eterna round: R107; input ligand: none;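 note: bound reporter read as fluorescence of individual clusters on recovered sequencing chips by microscopy, with normalized cluster intensities fitted with a binding model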
value-type: apparent KD of K4 kissing-loop reporter

>>> observed_value("AUGCUUAUAAUAACACUAUAUACAACUGAAGGAGCGACAAUAAAGUCAGGUAGGUCGCAGAAUAAAUGAGUGAUGUUCAUUUUUA [JR_ExcArginiA_Sub010]")
"113 nM"
>>> observed_value("GGAGGAGAAUAUGAUACCAGCAGAGAGAGAUACGAAGUAUAGUGAUGUUAUAUGAGAGAAUGCCCUUGGCAGCAUAAGACGCAGG [#08 K4 Theophylline B Same State]")
"116 nM"
>>> observed_value("AAGUGUGUGGCGGCCGCCACUAGAAUCCAGUGAUGUUGGAGAUAUCUCGUAAGAGAUAUCCGCCAUAGGACCGGGCCAUAUAGAA [Same State - Tryptophan B (Freestyle 15)]")
"1260 nM"
>>> observed_value("UCCUAGGCUCGAAAGAGCCUAGGAUUUACUCAGGAUAUCCGGAAACGGAGAAGGGAGUGACUAGUGAUGUUAGGGACUCCCUAUU")
"87.9 nM"
>>> observed_value("UUUAUUUUCUGAGGAUAUCGUUUUACUGAAGUGAUGUUUCAGUAUUUUCAUAUUAUAUAUAAUUUUCGAGAAGGCAGUAUUAUUA [JR_Nu_SSFMNB_Sub027]")
"63.7 nM"
>>> observed_value("AAGGCGUCGAGUUUGGUGGCGCCAACAGAUACCAGAUUACCUCCAAUCCCUUGGCAGCUGGCUUGAGAGUGAUGUUUUCAAAAGU [theeternabot_sameState_KL_Theo_A_33]")
"627 nM"
>>> observed_value("CCAUCGCUAUUCGAUACCAGUCAUAAAAUCUUUGGUUAAAUAAAGGAGUGAUGUUCCCAAGACCCUUGGCAGCGAAUAGUGAUGG [Theophylline B K4 7]")
"217 nM"
>>> observed_value("AACUUAAUUUAUAAGCAGUGAUGUUGCUCACGAGGACCGGUACGGCCGCCACUCGAUCGGACUUAGGUCUUCAAUUAUUUCAUUA [JR_ExcTryptoA_Sub017]")
"163 nM"
>>> observed_value("AUUAAUAUCACGGCCGCCACUGAAUAUUGUUUUUAUAUUUAGAAUAAUUGCCAGUGAUGUUGGAUCAGGACCGGGUGAGUUUAUA [JR_SSTryptoB_Sub007]")
"461 nM"
>>> observed_value("UCGGACGCGCACCUAGGCCAAUCCACUGCGAAGGAUAUGCGCGCCAGCAGAAGGUCGUUUUAUGAGUGAUGUUUAGAAACAGCGU [theeternabot_exclusion_KL_FMN_A_25]")
"305 nM"
>>> observed_value("AUUCUAUGGAGUGAUGUUCCUGUGAUGUCACGAGGACCGGUACGGCCGCCACUCGAUGUAUUGGUUUUUGAAAGAAACAACUGCA [Same State-Tryptophan A]")
"842 nM"

###

system: MS2 coat protein; assay: apparent KD of MS2 coat protein; designed switch direction (-1 OFF switch, 1 ON switch): -1; higher = weaker reporter binding; conditions: input ligand: none
This section presents sequences with their documented apparent KD of MS2 coat protein values.
value-type: apparent KD of MS2 coat protein

>>> observed_value("UAUUAGCAAGCGAGGUCCCACAUGAGGAUCACCCAUGUGCUCGUCUUAUAAGGUACUGUGACGAAAGUCACGGUACC [Sensor 3, v1 - 91 v8] (Eterna round: R97, puzzle: Sensor, turn-off variant 1)")
"13.1 nM"
>>> observed_value("UUUUAAUAUGAAGGAUAUACUUAACAUGAGGAUCACCCAUGUGGUGUUGUGAGUGAGUGAGUUUAGUAGAAGGUCAAUGAUUUU [JMF's solution 69] (Eterna round: R96, puzzle: Exclusion NG 2)")
"252 nM"
>>> observed_value("CGUCUGUCAGGAUAUGGUUACAUAGACAUGAGGAUCACCCAUGUGACGUGGGACUAGUGAUUAGAAGGGACGAACG [EX5 #69] (Eterna round: R97, puzzle: Exclusion 5)")
"31.7 nM"
>>> observed_value("GAAUGAGAGCAGGAUAUCUUAUAAAUGUAUGAAAGAGAAGGGCUCACAUGAGGAUCACCCAUGUGGUCCUAAAU [jl-ex6-4.74 jandersonlee mod] (Eterna round: R97, puzzle: Exclusion 6)")
"44.5 nM"
>>> observed_value("CUUAUGUAAGGAUAUGCCUGGCCGUGAGGCCAAAUUGAAUAGCAGAAGGUACAUGAGGAUCACCCAUGUACGGG [jl-ex4-4.63 ViennaUCT mod] (Eterna round: R97, puzzle: Exclusion 4)")
"364 nM"
